Reference source: patent US11066369B2

- TARGET SYSTEM: delF508-CFTR (Homo sapiens, UniProt P13569, DEL508-508)
- Construct: functional activity of the CFTR channel (Chloride ion transport) in patient derived primary human bronchial epithelial cells; host or cells: patient-derived primary human bronchial epithelial cells (delF508-CFTR)
- Sequence (P13569 with tags, fused parts or gaps DEL508-508): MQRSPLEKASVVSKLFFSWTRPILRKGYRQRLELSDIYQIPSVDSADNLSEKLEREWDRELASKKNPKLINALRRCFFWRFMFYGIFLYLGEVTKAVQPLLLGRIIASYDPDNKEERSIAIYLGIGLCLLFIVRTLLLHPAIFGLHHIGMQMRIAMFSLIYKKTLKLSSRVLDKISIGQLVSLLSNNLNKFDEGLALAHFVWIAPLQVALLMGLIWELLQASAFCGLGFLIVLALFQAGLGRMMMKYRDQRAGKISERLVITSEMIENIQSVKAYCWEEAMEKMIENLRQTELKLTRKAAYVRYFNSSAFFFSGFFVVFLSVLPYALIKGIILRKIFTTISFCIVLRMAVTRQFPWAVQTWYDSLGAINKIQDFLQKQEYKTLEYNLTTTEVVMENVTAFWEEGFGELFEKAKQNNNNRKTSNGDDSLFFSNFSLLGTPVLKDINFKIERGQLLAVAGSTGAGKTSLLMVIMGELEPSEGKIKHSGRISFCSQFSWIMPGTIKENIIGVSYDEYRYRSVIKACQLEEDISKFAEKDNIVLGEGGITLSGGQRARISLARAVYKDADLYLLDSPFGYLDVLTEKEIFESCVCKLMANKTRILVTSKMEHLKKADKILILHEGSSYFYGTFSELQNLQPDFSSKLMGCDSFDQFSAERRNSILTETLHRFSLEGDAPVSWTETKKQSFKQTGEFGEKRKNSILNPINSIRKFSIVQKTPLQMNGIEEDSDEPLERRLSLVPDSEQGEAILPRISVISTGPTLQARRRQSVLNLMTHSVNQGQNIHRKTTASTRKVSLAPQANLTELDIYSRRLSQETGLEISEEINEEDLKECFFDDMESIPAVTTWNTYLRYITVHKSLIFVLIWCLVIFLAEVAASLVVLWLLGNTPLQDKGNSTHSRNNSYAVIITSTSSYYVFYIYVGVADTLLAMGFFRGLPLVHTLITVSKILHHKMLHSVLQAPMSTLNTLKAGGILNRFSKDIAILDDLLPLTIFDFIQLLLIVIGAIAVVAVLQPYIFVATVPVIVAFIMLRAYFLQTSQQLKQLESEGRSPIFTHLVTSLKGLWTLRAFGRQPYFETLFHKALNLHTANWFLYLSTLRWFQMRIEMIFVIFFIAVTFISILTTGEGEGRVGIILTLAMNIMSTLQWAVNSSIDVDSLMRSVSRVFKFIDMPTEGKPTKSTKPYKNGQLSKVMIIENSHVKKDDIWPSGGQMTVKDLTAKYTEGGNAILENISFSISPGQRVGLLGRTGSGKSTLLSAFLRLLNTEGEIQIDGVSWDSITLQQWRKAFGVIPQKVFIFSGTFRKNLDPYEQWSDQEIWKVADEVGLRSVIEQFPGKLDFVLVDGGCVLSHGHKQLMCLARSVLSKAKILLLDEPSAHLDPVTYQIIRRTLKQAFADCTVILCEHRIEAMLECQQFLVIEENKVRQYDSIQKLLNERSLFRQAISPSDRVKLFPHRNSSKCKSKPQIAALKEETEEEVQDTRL
- ASSAY COMMENT: Measurement of delF508-CFTR functional activity in primary human bronchial epithelial cells (HBECs) using Multi-Transepithelial Clamp Circuit (MTECC-24) assay
- Format: cell-based
- ASSAY CONTEXT: primary CF HBECs; test compound added 24h before assay, in the presence of potentiator; mean of at least two replicates; read-out: MTECC24 CFHBEC- EC50
In this section we review reported EC50 values for a set of compounds.

[
  {
    "RECORD SMILES": "Cc1ccc(C#N)cc1-c1nc(NS(=O)(=O)c2cccc(N3CCNCC3)n2)ccc1C(F)(F)F",
    "EC50 / nM": 220
  },
  {
    "RECORD SMILES": "C[C@]1(C(=O)O)CCCN(c2cccc(S(=O)(=O)Nc3ccc(C(F)(F)F)c(-c4ccccc4C4CCC4)n3)n2)C1",
    "EC50 / nM": 1.17
  },
  {
    "RECORD SMILES": "Cc1c(F)cccc1-c1nc(NS(=O)(=O)c2cccc(N3CCC(C)(C(=O)O)CC3)n2)ccc1C(F)(F)F",
    "EC50 / nM": 8.3
  },
  {
    "RECORD SMILES": "Cc1ccccc1-c1nc(NS(=O)(=O)c2cccc(N[C@@H]3COCC[C@H]3O)n2)ccc1C(F)(F)F",
    "EC50 / nM": 3.5
  }
]
